B1: PTPLAD1 (parent)
chain: YSFYMLTCIDMDWKVLTWLRYTLW

variants of: B1; assay: protein stability index of a GFP-peptide fusion (GPS, HEK-293T) (PSI 1-6); higher = more stable; conditions: c terminus: a fixed tail appended;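 also: lentivirally expressed fusions sorted by FACS into six bins by GFP to DsRed ratio, PSI derived from sequencing read proportions per bin multiplied by bin number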
Attribute: protein stability index

# var, protein stability index
records = [
    ("D12A", 1.63),
    ("Y4N", 3.92),
    ("W13K", 2.71),
    ("C8P", 1.7),
    ("Y1H", 2.28),
    ("L6N", 2.48),
    ("K14Y", 2.61),
    ("Y4L", 3.13),
    ("T22R", 2.25),
    ("I9D", 2.78),
    ("D12K", 3.14),
    ("F3Q", 3.31),
    ("L6K", 1.28),
    ("T22F", 2.08),
    ("W13A", 2.71),
    ("Y4V", 2.36),
    ("F3N", 1.46),
    ("Y4P", 2.72),
    ("Y1P", 1.7),
    ("L19A", 2.9),
    ("K14A", 2.96),
    ("Y21S", 3.16),
]

Data origin, for the record: the supplement of paper PMC10567573
